Form field: inhibition of growth at 5 µM (one value per entry).
Assay: Growth inhibition of human PL45 cells at 5 uM after 24 hrs by [3H]thymidine uptake assay
Format: functional
Settings: read-out: GI
Please state the value followed by its unit.

Mol smiles	inhibition of growth at 5 µM
CC(C)C[C@@H]1NC(=O)[C@H](Cc2ccccc2)NC(=O)[C@@H](CC(C)C)NC(=O)[C@@H](C(C)C)NC(=O)[C@H](CC(C)C)NC(=O)[C@H](CC(C)C)NC(=O)[C@@H](Cc2ccccc2)NC(=O)[C@@H](CC(C)C)NC(=O)[C@@H](C(C)C)NC(=O)[C@H](CC(C)C)NC1=O	7%

query: Look at this compound and give its reported inhibition of growth at 5 µM. `CC(C)C[C@@H]1NC(=O)[C@H](Cc2ccccc2)NC(=O)[C@@H](CC(C)C)NC(=O)[C@@H](C(C)C)NC(=O)[C@@H](CC(C)C)NC(=O)[C@H](CC(C)C)NC(=O)[C@@H](Cc2ccccc2)NC(=O)[C@@H](CC(C)C)NC(=O)[C@@H](C(C)C)NC(=O)[C@@H](CC(C)C)NC1=O`
result: 12%

query: Param item: `CC(C)C[C@@H]1NC(=O)[C@H](Cc2ccccc2)NC(=O)[C@H](CC(C)C)NC(=O)[C@@H](C(C)C)NC(=O)[C@@H](CC(C)C)NC(=O)[C@H](CC(C)C)NC(=O)[C@H](Cc2ccccc2)NC(=O)[C@H](CC(C)C)NC(=O)[C@@H](C(C)C)NC(=O)[C@@H](CC(C)C)NC1=O`
result: 25%

query: Param item: `CC(C)C[C@@H]1NC(=O)[C@H](Cc2ccccc2)NC(=O)[C@H](CC(C)C)NC(=O)[C@@H](C(C)C)NC(=O)[C@H](CC(C)C)NC(=O)[C@H](CC(C)C)NC(=O)[C@H](Cc2ccccc2)NC(=O)[C@H](CC(C)C)NC(=O)[C@@H](C(C)C)NC(=O)[C@H](CC(C)C)NC1=O`
result: 30%

Source listed as ChEMBL document CHEMBL1154751.
